condition.notes: in cyclohexane, 293.15 K
readout.name: solubility (mole fraction)
// keep it numeric: no unit symbol after the value

// solubility (mole fraction) lookup, key: Nc1nc(Cl)cc(Cl)n1
7.15e-05

====

condition.notes: in acetonitrile, 318.15 K
readout.name: solubility (mole fraction)

// solubility (mole fraction) lookup, key: Nc1nc(Cl)cc(Cl)n1
0.00505

====

condition.notes: in acetone, 318.15 K
readout.name: solubility (mole fraction)
// keep it numeric: no unit symbol after the value

// solubility (mole fraction) lookup, key: Nc1nc(Cl)cc(Cl)n1
0.0163

====

condition.notes: in toluene, 293.15 K
readout.name: solubility (mole fraction)
// keep it numeric: no unit symbol after the value

// solubility (mole fraction) lookup, key: Nc1nc(Cl)cc(Cl)n1
0.00105

====

condition.notes: in acetone, 293.15 K
readout.name: solubility (mole fraction)
// keep it numeric: no unit symbol after the value

// solubility (mole fraction) lookup, key: Nc1nc(Cl)cc(Cl)n1
0.00848

====

condition.notes: in isopropanol, 308.15 K
readout.name: solubility (mole fraction)
// keep it numeric: no unit symbol after the value

// solubility (mole fraction) lookup, key: Nc1nc(Cl)cc(Cl)n1
0.00178

====

condition.notes: in isopropanol, 293.15 K
readout.name: solubility (mole fraction)
// keep it numeric: no unit symbol after the value

// solubility (mole fraction) lookup, key: Nc1nc(Cl)cc(Cl)n1
0.000989

====

condition.notes: in acetonitrile, 288.15 K
readout.name: solubility (mole fraction)
// keep it numeric: no unit symbol after the value

// solubility (mole fraction) lookup, key: Nc1nc(Cl)cc(Cl)n1
0.00186

====

condition.notes: in isopropanol, 278.15 K
readout.name: solubility (mole fraction)
// keep it numeric: no unit symbol after the value

// solubility (mole fraction) lookup, key: Nc1nc(Cl)cc(Cl)n1
0.000517

====

condition.notes: in ethyl acetate, 303.15 K
readout.name: solubility (mole fraction)
// keep it numeric: no unit symbol after the value

// solubility (mole fraction) lookup, key: Nc1nc(Cl)cc(Cl)n1
0.00981

====

condition.notes: in n-propanol, 283.15 K
readout.name: solubility (mole fraction)
// keep it numeric: no unit symbol after the value

// solubility (mole fraction) lookup, key: Nc1nc(Cl)cc(Cl)n1
0.00095

====

condition.notes: in isopropanol, 318.15 K
readout.name: solubility (mole fraction)
// keep it numeric: no unit symbol after the value

// solubility (mole fraction) lookup, key: Nc1nc(Cl)cc(Cl)n1
0.00257

====

condition.notes: in 1,4-dioxane, 303.15 K
readout.name: solubility (mole fraction)
// keep it numeric: no unit symbol after the value

// solubility (mole fraction) lookup, key: Nc1nc(Cl)cc(Cl)n1
0.0182

====

condition.notes: in methanol, 308.15 K
readout.name: solubility (mole fraction)
// keep it numeric: no unit symbol after the value

// solubility (mole fraction) lookup, key: Nc1nc(Cl)cc(Cl)n1
0.00293

====

condition.notes: in acetone, 298.15 K
readout.name: solubility (mole fraction)
// keep it numeric: no unit symbol after the value

// solubility (mole fraction) lookup, key: Nc1nc(Cl)cc(Cl)n1
0.0097

====

condition.notes: in ethanol, 293.15 K
readout.name: solubility (mole fraction)
// keep it numeric: no unit symbol after the value

// solubility (mole fraction) lookup, key: Nc1nc(Cl)cc(Cl)n1
0.00158

====

condition.notes: in acetone, 313.15 K
readout.name: solubility (mole fraction)

// solubility (mole fraction) lookup, key: Nc1nc(Cl)cc(Cl)n1
0.0143

====

condition.notes: in 1,4-dioxane, 318.15 K
readout.name: solubility (mole fraction)

// solubility (mole fraction) lookup, key: Nc1nc(Cl)cc(Cl)n1
0.0262

====

condition.notes: in n-propanol, 313.15 K
readout.name: solubility (mole fraction)
// keep it numeric: no unit symbol after the value

// solubility (mole fraction) lookup, key: Nc1nc(Cl)cc(Cl)n1
0.00265

====

condition.notes: in n-propanol, 303.15 K
readout.name: solubility (mole fraction)

// solubility (mole fraction) lookup, key: Nc1nc(Cl)cc(Cl)n1
0.00192

====

condition.notes: in acetone, 278.15 K
readout.name: solubility (mole fraction)
// keep it numeric: no unit symbol after the value

// solubility (mole fraction) lookup, key: Nc1nc(Cl)cc(Cl)n1
0.00538

====

condition.notes: in ethyl acetate, 298.15 K
readout.name: solubility (mole fraction)
// keep it numeric: no unit symbol after the value

// solubility (mole fraction) lookup, key: Nc1nc(Cl)cc(Cl)n1
0.00847

====

condition.notes: in ethyl acetate, 313.15 K
readout.name: solubility (mole fraction)
// keep it numeric: no unit symbol after the value

// solubility (mole fraction) lookup, key: Nc1nc(Cl)cc(Cl)n1
0.0129

====

condition.notes: in methanol, 313.15 K
readout.name: solubility (mole fraction)
// keep it numeric: no unit symbol after the value

// solubility (mole fraction) lookup, key: Nc1nc(Cl)cc(Cl)n1
0.00335

====

condition.notes: in isopropanol, 303.15 K
readout.name: solubility (mole fraction)
// keep it numeric: no unit symbol after the value

// solubility (mole fraction) lookup, key: Nc1nc(Cl)cc(Cl)n1
0.00148

====

condition.notes: in cyclohexane, 283.15 K
readout.name: solubility (mole fraction)
// keep it numeric: no unit symbol after the value

// solubility (mole fraction) lookup, key: Nc1nc(Cl)cc(Cl)n1
4.26e-05

====

condition.notes: in ethanol, 283.15 K
readout.name: solubility (mole fraction)
// keep it numeric: no unit symbol after the value

// solubility (mole fraction) lookup, key: Nc1nc(Cl)cc(Cl)n1
0.00111

====

condition.notes: in cyclohexane, 313.15 K
readout.name: solubility (mole fraction)
// keep it numeric: no unit symbol after the value

// solubility (mole fraction) lookup, key: Nc1nc(Cl)cc(Cl)n1
0.000181

====

condition.notes: in cyclohexane, 303.15 K
readout.name: solubility (mole fraction)
// keep it numeric: no unit symbol after the value

// solubility (mole fraction) lookup, key: Nc1nc(Cl)cc(Cl)n1
0.000115

====

condition.notes: in toluene, 303.15 K
readout.name: solubility (mole fraction)
// keep it numeric: no unit symbol after the value

// solubility (mole fraction) lookup, key: Nc1nc(Cl)cc(Cl)n1
0.00156

====

condition.notes: in toluene, 318.15 K
readout.name: solubility (mole fraction)
// keep it numeric: no unit symbol after the value

// solubility (mole fraction) lookup, key: Nc1nc(Cl)cc(Cl)n1
0.00274

====

condition.notes: in ethanol, 318.15 K
readout.name: solubility (mole fraction)

// solubility (mole fraction) lookup, key: Nc1nc(Cl)cc(Cl)n1
0.00339

====

condition.notes: in n-propanol, 293.15 K
readout.name: solubility (mole fraction)

// solubility (mole fraction) lookup, key: Nc1nc(Cl)cc(Cl)n1
0.00136

====

condition.notes: in toluene, 283.15 K
readout.name: solubility (mole fraction)
// keep it numeric: no unit symbol after the value

// solubility (mole fraction) lookup, key: Nc1nc(Cl)cc(Cl)n1
0.000695

====

condition.notes: in acetone, 288.15 K
readout.name: solubility (mole fraction)
// keep it numeric: no unit symbol after the value

// solubility (mole fraction) lookup, key: Nc1nc(Cl)cc(Cl)n1
0.0073

====

condition.notes: in acetonitrile, 298.15 K
readout.name: solubility (mole fraction)
// keep it numeric: no unit symbol after the value

// solubility (mole fraction) lookup, key: Nc1nc(Cl)cc(Cl)n1
0.00265

====

condition.notes: in n-propanol, 298.15 K
readout.name: solubility (mole fraction)
// keep it numeric: no unit symbol after the value

// solubility (mole fraction) lookup, key: Nc1nc(Cl)cc(Cl)n1
0.00163

====

condition.notes: in cyclohexane, 298.15 K
readout.name: solubility (mole fraction)
// keep it numeric: no unit symbol after the value

// solubility (mole fraction) lookup, key: Nc1nc(Cl)cc(Cl)n1
9.05e-05

====

condition.notes: in acetonitrile, 308.15 K
readout.name: solubility (mole fraction)
// keep it numeric: no unit symbol after the value

// solubility (mole fraction) lookup, key: Nc1nc(Cl)cc(Cl)n1
0.0037

====

condition.notes: in acetonitrile, 278.15 K
readout.name: solubility (mole fraction)
// keep it numeric: no unit symbol after the value

// solubility (mole fraction) lookup, key: Nc1nc(Cl)cc(Cl)n1
0.00128

====

condition.notes: in acetonitrile, 303.15 K
readout.name: solubility (mole fraction)
// keep it numeric: no unit symbol after the value

// solubility (mole fraction) lookup, key: Nc1nc(Cl)cc(Cl)n1
0.00314

====

condition.notes: in toluene, 288.15 K
readout.name: solubility (mole fraction)
// keep it numeric: no unit symbol after the value

// solubility (mole fraction) lookup, key: Nc1nc(Cl)cc(Cl)n1
0.000856

====

condition.notes: in isopropanol, 283.15 K
readout.name: solubility (mole fraction)

// solubility (mole fraction) lookup, key: Nc1nc(Cl)cc(Cl)n1
0.000645

====

condition.notes: in toluene, 278.15 K
readout.name: solubility (mole fraction)
// keep it numeric: no unit symbol after the value

// solubility (mole fraction) lookup, key: Nc1nc(Cl)cc(Cl)n1
0.000551

The values you see were collected from BigSolDB 2.1.
